test: Aqueous equilibrium solubility in pH 7.4 buffer; conditions: pH 7.4 aqueous buffer, room temperature, equilibrium
MEASURE NAME: Solubility pH 7.4 (mg/mL)

INSERT INTO results (compound, unit_abbreviation, test_value) VALUES
  ('CCCC(N(NC(=O)c1cccc(OC)c1C)C(=O)c1cc(C)cc(C)c1)C(C)(C)C (stereo not shown)', 'mg/mL', 0.0003),
  ('CCc1c(OC)cccc1C(=O)NN(C(=O)c1ccccc1[S+](C)[O-])C(C)(C)C (stereo not shown)', 'mg/mL', 0.0064),
  ('COc1cnccc1C(=O)N(NC(=O)c1cccc(O)c1C)C(C)(C)C', 'mg/mL', 0.026),
  ('CCc1c(C(=O)NN(C(=O)c2ccc(F)c(C(F)(F)F)c2)C(C)(C)C)ccc2c1OCCO2', 'mg/mL', 0.0012);

Source listed as patent US9102648B1.
